Biological target: BAP-tagged AMPK α2β2γ3 (Homo sapiens, UniProt O43741+P54646+Q9UGI9)
Construct: Recombinant full-length AMPK heterotrimeric complexes α1β1γ1, α1β2γ1, α1β2γ3, α2β1γ1, α2β2γ1 and α2β2γ3 were cloned into a tricistronic vector system; 6X-His (N); made in house; host or cells: E. coli BL21-CodonPlus (DE3)-RIPL, co-expressed with BirA
Sequence (P54646 whole entry): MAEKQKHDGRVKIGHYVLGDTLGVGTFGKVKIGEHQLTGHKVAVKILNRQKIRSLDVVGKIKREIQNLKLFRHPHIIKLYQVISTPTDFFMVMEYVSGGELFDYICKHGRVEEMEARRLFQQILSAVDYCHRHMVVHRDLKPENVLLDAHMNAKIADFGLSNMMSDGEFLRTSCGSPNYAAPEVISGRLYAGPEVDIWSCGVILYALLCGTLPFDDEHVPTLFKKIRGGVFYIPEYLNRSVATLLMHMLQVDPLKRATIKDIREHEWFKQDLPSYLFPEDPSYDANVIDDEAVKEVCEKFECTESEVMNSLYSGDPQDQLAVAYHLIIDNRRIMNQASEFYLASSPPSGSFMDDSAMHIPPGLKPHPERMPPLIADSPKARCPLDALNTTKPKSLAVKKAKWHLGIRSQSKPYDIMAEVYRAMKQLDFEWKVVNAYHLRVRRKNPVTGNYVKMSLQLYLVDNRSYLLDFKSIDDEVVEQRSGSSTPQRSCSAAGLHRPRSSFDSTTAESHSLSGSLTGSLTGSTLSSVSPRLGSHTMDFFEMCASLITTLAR
Sequence (O43741 whole entry): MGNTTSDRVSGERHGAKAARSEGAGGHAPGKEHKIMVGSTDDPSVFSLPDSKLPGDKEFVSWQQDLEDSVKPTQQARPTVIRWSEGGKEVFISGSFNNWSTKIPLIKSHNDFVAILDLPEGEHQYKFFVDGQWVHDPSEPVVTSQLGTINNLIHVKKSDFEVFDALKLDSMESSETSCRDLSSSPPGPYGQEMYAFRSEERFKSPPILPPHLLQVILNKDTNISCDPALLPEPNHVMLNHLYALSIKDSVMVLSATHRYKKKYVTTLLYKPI
Sequence (Q9UGI9 whole entry): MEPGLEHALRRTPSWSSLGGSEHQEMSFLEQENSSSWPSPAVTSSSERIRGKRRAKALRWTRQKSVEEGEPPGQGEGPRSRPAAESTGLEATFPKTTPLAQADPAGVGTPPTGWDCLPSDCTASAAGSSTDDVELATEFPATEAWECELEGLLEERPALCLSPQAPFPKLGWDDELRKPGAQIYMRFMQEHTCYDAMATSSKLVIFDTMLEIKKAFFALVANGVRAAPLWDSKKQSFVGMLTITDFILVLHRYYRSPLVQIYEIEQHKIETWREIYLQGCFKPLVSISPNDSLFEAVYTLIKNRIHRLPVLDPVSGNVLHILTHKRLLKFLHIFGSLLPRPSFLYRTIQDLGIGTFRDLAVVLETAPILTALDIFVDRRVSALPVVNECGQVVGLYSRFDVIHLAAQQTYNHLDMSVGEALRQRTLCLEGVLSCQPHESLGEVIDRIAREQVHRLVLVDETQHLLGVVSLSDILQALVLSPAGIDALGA
Assay: SPR direct binding (Biacore)
Details: weaker site, presence of Mg2+ and 25 nM Stau, listed as Mg-AMP+Stau, read-out: KD2
reported property: pKd
Would you please state pKd, meaning minus log10 of the concentration in mol/L, as a bare number?

Give the measured pKd of Nc1ncnc2c1ncn2[C@@H]1O[C@H](COP(=O)(O)O)[C@@H](O)[C@H]1O [AMP] .
4.37
